Molecular target: T1, His-tagged human HER3 antigen (human, UniProt P21860 20-643)
T1 construct: Soluble antigen used as analyte in SPR; not shown: His tag
Assay: SPR, Biacore 8K; antibody captured, His-tagged human HER3 antigen 6.25-400 nM as analyte; 1:1 Langmuir
measure name: kon (M⁻¹ s⁻¹)
Express the result in M⁻¹ s⁻¹ but write the number alone.

Prompt: Please indicate kon recorded for Antibody A N93Q (antibody, human IgG1, kappa, V domains shown, Differs from antibody A only by N to Q at position 93 of VL) VH: QVQLVQSGGGLVQPGRSLRLSCAASGFTFDDYAMHWVRQAPGKGLEWVSGISWNSGSIGYADSVKGRFTISRDNAKNSLYLQMNSLRAEDTALYYCAKEGLPGLDYWGQGTLVTVSS VL: DIQMTQSPSSLSASIGDRATITCRASQHVGTYLNWYQQKPGKTPKLLISGAANLQSGVPSRFSGSGSGTDFTLTISSLQPEDFATYYCQQSYQTPPFSFGQGTKVEIKR
Response: 573000
